// data source = PubChem BioAssay AID1845197

Test system: 349418-098-R tumor spheroid viability
Test: Anticancer human tumor 349418-098-R patient-derived lung adenocarcinoma cell line growth inhibition
Conditions: second compound 0.000949 µM; first compound 10 µM; hits give low values; spheroids with HUVEC and MSC
Documented viability, T/C across a set of molecules
property: viability, T/C (%)

molecule="[2H]c1nc(C)nc([2H])c1-c1cc(NC[C@@H](C)c2cccc3c(C(=O)NC)ccnc23)ncn1 + COc1cc2c(cc1O)CCNC21CSC2c3c(OC(C)=O)c(C)c4c(c3C(COC1=O)N1C(O)C3Cc5cc(C)c(OC)c(O)c5C(C21)N3C)OCO4" unit_tag=% measurement=0.49
molecule="Cc1cc(C)c(CNC(=O)c2cc(-c3ccc(CN4CCOCC4)cc3)cc3c2cnn3C2CCCC2)c(=O)[nH]1 + COc1cc2c(cc1O)CCNC21CSC2c3c(OC(C)=O)c(C)c4c(c3C(COC1=O)N1C(O)C3Cc5cc(C)c(OC)c(O)c5C(C21)N3C)OCO4" unit_tag=% measurement=0.53
molecule="COc1ccc([C@@H](O)c2cc(-c3ncnc4cc(N5CCOCC5)ccc34)c(F)cc2Cl)nn1 + COc1cc2c(cc1O)CCNC21CSC2c3c(OC(C)=O)c(C)c4c(c3C(COC1=O)N1C(O)C3Cc5cc(C)c(OC)c(O)c5C(C21)N3C)OCO4" unit_tag=% measurement=2.19
molecule="COc1cc(C)[nH]c(=O)c1CN1CCc2c(Cl)cc(C(OC)C3COC3)c(Cl)c2C1=O (stereo unspecified) + COc1cc2c(cc1O)CCNC21CSC2c3c(OC(C)=O)c(C)c4c(c3C(COC1=O)N1C(O)C3Cc5cc(C)c(OC)c(O)c5C(C21)N3C)OCO4" unit_tag=% measurement=0.33
molecule="CC(C)n1c(=O)n(C)c2cnc3cc(F)c(-c4ccc(OCCCN5CCCCC5)nc4)cc3c21 + COc1cc2c(cc1O)CCNC21CSC2c3c(OC(C)=O)c(C)c4c(c3C(COC1=O)N1C(O)C3Cc5cc(C)c(OC)c(O)c5C(C21)N3C)OCO4" unit_tag=% measurement=0.62
molecule="CC1COCCN1c1cc(-c2ccnn2C)c2ccnc(-c3ccn[nH]3)c2n1 (stereo unspecified) + COc1cc2c(cc1O)CCNC21CSC2c3c(OC(C)=O)c(C)c4c(c3C(COC1=O)N1C(O)C3Cc5cc(C)c(OC)c(O)c5C(C21)N3C)OCO4" unit_tag=% measurement=0.23

###

Tested on: 349418-098-R tumor spheroid viability
Assay: Anticancer human tumor 349418-098-R cell line growth inhibition;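 note: spheroids exposed to compound for 7 days before measurement; percent of vehicle control viability with 100% = DMSO-treated spheroids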
Details: second compound 3.16 µM; first compound 0.316 µM; hits give low values; spheroids with HUVEC and MSC
Documented viability, T/C across a set of molecules
property: viability, T/C (%)

molecule="COc1cc(C)[nH]c(=O)c1CN1CCc2c(Cl)cc(C(OC)C3COC3)c(Cl)c2C1=O (stereo unspecified) + Cn1nnc2c(C(N)=O)ncn2c1=O" unit_tag=% measurement=95.7
molecule="COc1ccc([C@@H](O)c2cc(-c3ncnc4cc(N5CCOCC5)ccc34)c(F)cc2Cl)nn1 + Cn1nnc2c(C(N)=O)ncn2c1=O" unit_tag=% measurement=106
molecule="Cc1cc(C)c(CNC(=O)c2cc(-c3ccc(CN4CCOCC4)cc3)cc3c2cnn3C2CCCC2)c(=O)[nH]1 + Cn1nnc2c(C(N)=O)ncn2c1=O" unit_tag=% measurement=103
molecule="CC1COCCN1c1cc(-c2ccnn2C)c2ccnc(-c3ccn[nH]3)c2n1 (stereo unspecified) + Cn1nnc2c(C(N)=O)ncn2c1=O" unit_tag=% measurement=12.5
molecule="CC(C)n1c(=O)n(C)c2cnc3cc(F)c(-c4ccc(OCCCN5CCCCC5)nc4)cc3c21 + Cn1nnc2c(C(N)=O)ncn2c1=O" unit_tag=% measurement=103
molecule="[2H]c1nc(C)nc([2H])c1-c1cc(NC[C@@H](C)c2cccc3c(C(=O)NC)ccnc23)ncn1 + Cn1nnc2c(C(N)=O)ncn2c1=O" unit_tag=% measurement=104
